- target-or-system: human α4β7 (Homo sapiens, UniProt P13612+P26010)
- Construct: expressed in transfected cells
- Sequence (P13612 34-1032): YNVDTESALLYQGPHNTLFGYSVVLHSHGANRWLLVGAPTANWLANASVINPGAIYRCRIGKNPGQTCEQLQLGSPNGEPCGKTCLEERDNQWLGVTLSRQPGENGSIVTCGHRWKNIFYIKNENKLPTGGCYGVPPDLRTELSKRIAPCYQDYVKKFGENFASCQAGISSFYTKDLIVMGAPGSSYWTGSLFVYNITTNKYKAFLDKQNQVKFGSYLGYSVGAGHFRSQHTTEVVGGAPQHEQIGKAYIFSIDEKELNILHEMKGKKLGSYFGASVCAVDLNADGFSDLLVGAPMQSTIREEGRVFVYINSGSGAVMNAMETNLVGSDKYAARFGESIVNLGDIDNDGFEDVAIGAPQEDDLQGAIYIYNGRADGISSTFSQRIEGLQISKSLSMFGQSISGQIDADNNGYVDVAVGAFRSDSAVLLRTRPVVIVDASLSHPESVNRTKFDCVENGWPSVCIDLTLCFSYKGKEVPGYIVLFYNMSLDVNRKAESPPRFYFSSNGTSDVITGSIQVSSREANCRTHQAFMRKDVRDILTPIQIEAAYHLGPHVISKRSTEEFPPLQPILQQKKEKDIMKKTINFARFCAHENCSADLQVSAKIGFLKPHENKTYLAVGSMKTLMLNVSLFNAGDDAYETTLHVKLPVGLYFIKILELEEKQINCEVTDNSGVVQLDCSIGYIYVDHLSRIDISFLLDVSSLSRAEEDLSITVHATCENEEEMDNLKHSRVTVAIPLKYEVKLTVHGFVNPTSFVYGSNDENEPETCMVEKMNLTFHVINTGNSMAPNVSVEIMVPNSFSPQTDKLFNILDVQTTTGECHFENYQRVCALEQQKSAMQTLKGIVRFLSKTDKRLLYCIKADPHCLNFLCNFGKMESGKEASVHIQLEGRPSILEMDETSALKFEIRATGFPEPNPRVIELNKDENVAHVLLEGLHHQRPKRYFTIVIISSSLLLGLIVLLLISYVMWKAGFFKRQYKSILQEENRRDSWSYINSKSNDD
- Sequence (P26010 20-798): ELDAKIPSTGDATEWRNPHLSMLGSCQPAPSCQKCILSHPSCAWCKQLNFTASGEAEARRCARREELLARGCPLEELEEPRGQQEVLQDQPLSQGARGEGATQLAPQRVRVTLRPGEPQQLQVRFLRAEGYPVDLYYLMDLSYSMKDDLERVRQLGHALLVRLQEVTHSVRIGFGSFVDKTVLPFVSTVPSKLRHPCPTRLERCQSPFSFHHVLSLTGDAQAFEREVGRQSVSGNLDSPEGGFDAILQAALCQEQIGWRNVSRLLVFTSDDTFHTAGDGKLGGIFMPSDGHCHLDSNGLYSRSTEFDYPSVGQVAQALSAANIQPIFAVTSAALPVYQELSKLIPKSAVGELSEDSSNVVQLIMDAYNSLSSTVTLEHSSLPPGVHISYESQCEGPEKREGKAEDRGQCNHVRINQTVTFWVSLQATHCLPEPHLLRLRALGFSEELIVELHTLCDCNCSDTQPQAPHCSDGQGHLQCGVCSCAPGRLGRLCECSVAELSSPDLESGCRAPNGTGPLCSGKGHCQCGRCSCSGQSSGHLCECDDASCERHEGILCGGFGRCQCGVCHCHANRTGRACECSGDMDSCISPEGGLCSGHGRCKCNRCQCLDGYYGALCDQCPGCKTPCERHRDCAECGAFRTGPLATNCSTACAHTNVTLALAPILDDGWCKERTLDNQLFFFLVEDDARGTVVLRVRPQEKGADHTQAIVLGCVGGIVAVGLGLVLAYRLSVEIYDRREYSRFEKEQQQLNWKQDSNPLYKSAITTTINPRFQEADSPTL
- procedure-details: α4β7-K562 Cell Adhesion Assay (α4β7 Mediated Adhesion/VCAM-1)
- Assay type: cell-based
- measurement-setup: K562 cells expressing human α4β7 on recombinant hVCAM-1; read-out: α4β7 IC50
value-type: IC50 (nM)

Examples with their reported IC50 follow.
O=C(Nc1ccc(CC(NC(=O)C2C3CCC(CC3)N2C(=O)Cc2ccccn2)C(=O)O)cc1)c1c(Cl)cncc1Cl (stereo not drawn)    32
CC(C)CCC(=O)N1C2CCC(CC2)C1C(=O)NC(Cc1ccc(NC(=O)c2c(Cl)cncc2Cl)cc1)C(=O)O (stereo not drawn)    15
O=C(Nc1ccc(CC(NC(=O)C2C3CCC(CC3)N2C(=O)CCc2cc(C(F)(F)F)cc(C(F)(F)F)c2)C(=O)O)cc1)c1c(Cl)cncc1Cl (stereo not drawn)    181

[P] COc1cccc(CC(=O)N2C3CCC(CC3)C2C(=O)NC(Cc2ccc(NC(=O)c3c(Cl)cncc3Cl)cc2)C(=O)O)c1 (stereo not drawn) [Cpd 59]
[Q] CC(=Cc1ccccc1)C(=O)N1C2CCC(CC2)C1C(=O)NC(Cc1ccc(NC(=O)c2c(Cl)cncc2Cl)cc1)C(=O)O (stereo not drawn)
[R] O=C(Nc1ccc(CC(NC(=O)C2C3CCC(CC3)N2C(=O)c2ccccc2Oc2ccccc2)C(=O)O)cc1)c1c(Cl)cncc1Cl (stereo not drawn)
**Query** Hi! Can you put these in order of IC50, lowest number first? To answer, arrange all of the labels according to the requested order.
**Result** R, P, Q

[I] O=C(Nc1ccc(CC(NC(=O)C2C3CCC(CC3)N2C(=O)CCCC2CCCCC2)C(=O)O)cc1)c1c(Cl)cncc1Cl (stereo not drawn)
[II] O=C(Nc1ccc(CC(NC(=O)C2C3CCC(CC3)N2C(=O)OCc2ccccc2)C(=O)O)cc1)c1c(Cl)cncc1Cl (stereo not drawn) [Cpd 64]
[III] O=C(Nc1ccc(CC(NC(=O)C2C3CCC(CC3)N2C(=O)CCc2ccccc2F)C(=O)O)cc1)c1c(Cl)cncc1Cl (stereo not drawn)
[IV] O=C(Nc1ccc(CC(NC(=O)C2C3CCC(CC3)N2C(=O)Cc2csc3ccccc23)C(=O)O)cc1)c1c(Cl)cncc1Cl (stereo not drawn) [Cpd 62]
**Query** Put the entries in order of IC50, starting with the largest number. Give the order by naming the labels one after another as requested.
**Result** IV, I, III, II

[I] CC(C)(C)CC(=O)N1C2CCC(CC2)C1C(=O)NC(Cc1ccc(NC(=O)c2c(Cl)cncc2Cl)cc1)C(=O)O (single isomer, unassigned) [Cpd 34]
[II] O=C(Nc1ccc(CC(NC(=O)C2C3CCC(CC3)N2Cc2ccccc2)C(=O)O)cc1)c1c(Cl)cncc1Cl (stereo not drawn)
**Query** Exercise: compare I and II ; which one has the greater IC50? Let me know the label of the one you choose.
**Result** II
